Taken from PubChem BioAssay (Tox21).

protocol_details: A CellTox Green Cytotoxicity Assay to monitor cytotoxicity in HEK293 cells - 32 hour (AID 1224881); note: nearly all actives have a fitted effect of over 40% in size
details: CellTox Green fluorescence; series mostly up to 76.8 µM
Records with an inconclusive call do not appear. The source made the active and inactive calls. Calls come from the whole dose curve; as a rule, active = well fitted activation curve with a large enough effect in the repeat runs; inconclusive = weak or mixed curves; inactive = flat fitted curve, though single readings scatter.
measurement_label: outcome

CC[C@H](C)[C@@H](C(=O)O)n1sc2ccccc2c1=O : inactive
CC[C@H](C)[C@H](N)C(=O)O : inactive
CCOc1nc2cccc(C(=O)O)c2n1Cc1ccc(-c2ccccc2-c2nn[nH]n2)cc1 : inactive
O=S1(=O)c2cccc3cccc(c23)N1CCCN1CCN(c2ccc(F)cc2)CC1 : inactive
Cc1ccc(C(C)c2ccc(C)c(C)c2)cc1C : inactive
N#CCCNCCC#N : inactive

###

system_name: Nuclear receptor subfamily 1 group I member 2 (Homo sapiens)
protocol_details: Human pregnane X receptor (PXR) small molecule agonists, qHTS assay (AID 1346982); note: nearly all actives have a fitted effect of over 35% in size
details: PXR-Luc HepG2, CYP3A4 luciferase reporter, 24 h; series mostly up to 92.4 µM
Inconclusive results are not listed. Active and inactive are the calls of the source. Calls come from the whole dose curve; as a rule, active = well fitted activation curve with a large enough effect in the repeat runs; inconclusive = weak or mixed curves; inactive = no such curve, though single readings can be large or run the other way.
Classes used: true = active, false = inactive

COCCO : false
CCN1CCC[C@H]1CNC(=O)c1c(OC)ccc(Br)c1OC : false
CN(C)CC[C@@H](c1ccc(Br)cc1)c1ccccn1 : false
COCCCCCCCCOCCC[Si](C)(O[Si](C)(C)C)O[Si](C)(C)C : true
CCCc1ccccc1 : false
NC(=S)N/N=C/c1cccnc1 : false
COC(Cc1ccccc1)OC : false
O=S(=O)(O)c1ccc(O)c2ncccc12 : false
N#Cc1cc2ccccc2c2ccccc12 : true
CCOC(=O)CC(C)C : false
CCOc1ccc(NC(=O)CC(C)=O)cc1 : false
Cc1ncsc1CCO : false
Cc1cc(NC(=O)C(=O)O)cc(C)c1Oc1ccc(O)c2c1CCC2 : false
N#CCc1cccc(C(F)(F)F)c1 : false
CCCCOC(=O)/C=C\C(=O)OCCCC : false

###

protocol_details: qHTS assay to identify small molecule antagonists of the estrogen related receptor signaling pathway with the pleiotropic PPARgamma coactivator (PGC) from Tox21 10K library (AID 1224841); note: actives are mostly falling curves and most rising ones were filed inactive; nearly all actives have a fitted effect of over 50% in size
details: PGC/ERR reporter cell line, ONE-Glo luciferase, 18 h; series mostly up to 92.4 µM
From the text: U.S. Tox21 Program National Center for Advancing Translational Sciences [NCATS] NIH Chemical Genomics Center [NCGC] U.S. Environmental Protection Agency [EPA] National Institutes of Environmental Health Sciences [NIEHS] National Toxicology Program [NTP] U.S. Food and Drug Administration [FDA] Tox21 Assay Overview: Estrogen related receptors (ERRs), the first orphan nuclear receptors discovered, play an important role in the control of cellular energy metabolism. […]
Records with an inconclusive call do not appear. Calls of active or inactive are those of the source. The rule behind the calls is not given here.
Outcome codes: active, inactive

CCOc1ccc(NC(=O)CC(C)=O)cc1 : inactive
Cc1ccc(C(=O)C(C)CN2CCCCC2)cc1 (stereo unspecified) : inactive
CCCC[C@H]1CN(CC2CCOCC2)C(=O)OC12CCN(C1(C)CCN(C(=O)c3c(C)ncnc3C)CC1)CC2 : inactive
O=C(O)[C@@H]1[C@H]2C[C@H]3c4[nH]c5ccccc5c4CCN3C[C@@H]2CC[C@@H]1O : inactive
Nc1nc(CC(=O)O)cs1 : active
CCCCCCCCC(CO)CCCCCC (stereo unspecified) : inactive
O=C(O)c1cccc(N(Cc2cccnc2)c2ccc(OC(F)F)c(OC(F)F)c2)c1 : inactive
C=Cc1c(C)c2cc3[nH]c(cc4nc(cc5nc(cc1[nH]2)C(C)=C5CCC(=O)O)C(CCC(=O)O)=C4C)c(C)c3C=C : inactive
Cn1c(=O)c2c(ncn2CC(O)CO)n(C)c1=O (stereo unspecified) : inactive
CCCc1ccccc1 : inactive
Cc1ccccc1N=Nc1ccc(N=Nc2c(O)ccc3ccccc23)c(C)c1 : inactive
O=C(c1ccc(O)cc1)c1ccc(O)cc1 : inactive
COC(=O)C(C)=O : inactive
CN1CCC(=C2c3ccccc3CCc3sccc32)CC1 : inactive
O=CNc1ccccc1 : inactive
O=C1c2cccc(O)c2C(=O)c2c(O)cc(CO)cc21 : inactive
